// data source = patent US4698332A

Assay: Acute toxicity test of sodium salt of N-acetylneuraminic acid, rat (Example 11)
Assay type: in vivo, SD rats
Conditions: in vivo, iv, intravenous injection, first line (sex not given), 95% 2,638-3,342
Where a name gives a salt, the structure may show the parent alone.

{"columns": ["COMPOUND", "LD50 at 336 h (mg/kg)"],
 "data": [
  ["CC(=O)N[C@H]1[C@H]([C@H](O)[C@H](O)CO)OC(O)(C(=O)O)C[C@@H]1O (stereo partly shown) [sodium salt of N-acetylneuraminic acid]", 2970]
]}

====

Assay: Acute toxicity test of sodium salt of N-acetylneuraminic acid, mouse (Example 11)
Set-up: species or system ICR mice
Conditions: in vivo, sc, subcutaneous injection, second line (sex not given)
Structures can show the parent of a compound that is named as a salt.

{"columns": ["COMPOUND", "LD50 at 336 h"],
 "data": [
  ["CC(=O)N[C@H]1[C@H]([C@H](O)[C@H](O)CO)OC(O)(C(=O)O)C[C@@H]1O (stereo partly shown) [sodium salt of N-acetylneuraminic acid]", "> 5000 mg/kg"]
]}
